All figures here come from PubChem BioAssay (NCI).

Test system: A549 NSCLC
EXPERIMENT SUMMARY: NCI tumour cell line growth inhibition, 48 h
READOUT KIND: TGI (µM)
// return numeric value only (unit: µM, not printed)

Reported TGI for `COc1ccc(S(=O)(=O)N2CCCCC2)cc1NC(=O)c1[nH]c(C)c2c1CCCCC2=O` was 15

Reported TGI for Fc1ccc(C(OCCN2CC3CC2CN3CCCc2ccccc2)c2ccc(F)cc2)cc1 (stereo not given) was 26.6

Reported TGI for `CCN(CCc1ccc(F)cc1)c1ccc(CO)c(Cl)c1` was 24.4

Reported TGI for `CCCCCCCCCCSS(=O)(=O)c1ccc(C)cc1` was 29.8

Reported TGI for CSc1ccc2c(cc1=O)C(NC(=O)c1cc(O)c(OC(=O)O)c(O)c1)CCc1cc(O)c(O)c(O)c1-2 (stereo not given) was 52

Reported TGI for `COc1ccc(OC)c2c1C(=O)C(Cl)=C(Cl)C2=O` was 56.4
